Quick list: Aq. Sol. per entry.
Assay: Fragment solubility assay (quantitative 1H NMR)
Assay type: physicochemical
Details: Supplementary Table 1
Numeric answer only, unit µM assumed.

Study these solved cases before continuing.
compound="COc1ccc2sc(C)nc2c1 [Compound 22]" valuemeasured=790
compound="Nc1nc2cc3c(cc2s1)OCO3 [Compound 24]" valuemeasured=400
compound="COc1cc2nc(N)sc2cc1OC [Compound 21]" valuemeasured=190

// next item, Aq. Sol. requested
What value of Aq. Sol. has been reported for the following compound? COc1ccc2sc(N)nc2c1 [Compound 20]
580

====

Biological target: TRF1TRFH (Homo sapiens, UniProt P54274)
Construct: encoding residues 47–268, UniProt identifier P54274-1; His6-MBP (TEV-cleavable) (N, cleaved yes); made in house; host or cells: E. coli BL21-CodonPlus(DE3)-RIL
Sequence (P54274 47-268): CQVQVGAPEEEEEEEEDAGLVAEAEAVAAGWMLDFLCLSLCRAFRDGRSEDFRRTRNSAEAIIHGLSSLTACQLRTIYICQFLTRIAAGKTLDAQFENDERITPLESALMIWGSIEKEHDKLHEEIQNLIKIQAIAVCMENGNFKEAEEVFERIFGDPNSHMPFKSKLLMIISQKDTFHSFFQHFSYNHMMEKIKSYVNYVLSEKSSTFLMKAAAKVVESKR
Assay: LO-NMR CPMG assay (relaxation-edited), singletons
Format: binding
Conditions: net recovery of peak intensity on addition of TIN2TBM peptide (40 µM) to compound plus protein; single experiment
Description: We next used a LO-NMR CPMG assay to orthogonally validate XChem hits in solution, aiming to eliminate false positives and rank hit matter for follow-up studies. Compounds were tested as singletons and prepared in two samples containing either compound alone (sample 1) or compound + TRF1TRFH (sample 2). […] The data were then analysed using the MNova Screen software. […] The relative peak intensity change (I) was calculated for all peaks in the 5.5–9.5 ppm region, for each compound, as described previously. […]
Quick list: CPMG recovery per entry.

Study these solved cases before continuing.
compound="CCOc1ccc(C(=O)O)c2ccccc12 [Compound 34, 4-ethoxy-1-naphthoic acid]" systemundertest="TRF1TRFH (Homo sapiens, UniProt P54274)" valuemeasured=20%
compound="CCOc1ccc(S(N)(=O)=O)c2ccccc12 [Compound 33, 4-ethoxynaphthalene-1-sulfonamide]" systemundertest="TRF1TRFH (Homo sapiens, UniProt P54274)" valuemeasured=1%
compound="CC(C)Oc1ccc(S(=O)(=O)[O-])c2ccccc12.[Na+] [Compound 30]" systemundertest="TRF1TRFH (Homo sapiens, UniProt P54274)" valuemeasured=4%
compound="Nc1nc2cc3c(cc2s1)OCO3 [Compound 24]" systemundertest="TRF1TRFH (Homo sapiens, UniProt P54274)" valuemeasured=11%

// next item, CPMG recovery requested
What value of CPMG recovery has been reported for the following compound? COc1cc2nc(N)sc2cc1OC [Compound 21]
12%
